SYSTEM_TESTED: ScLsb4
ASSAY_TEXT: SPOT peptide array binding signal intensity (averaged, normalized) (arbitrary units (background-subtracted, floor 0; scale differs between SH3 domains)); higher = stronger binding of the SH3 domain to the peptide
OBSERVATION_TYPE: SPOT peptide array binding signal intensity

binder=LKPPIGRPPKFPKSP censoring_operator=≤ numeric_readout=0
binder=SAPDIPPRSPNRNAH censoring_operator== numeric_readout=936
binder=ITHRLRISIPGITGR censoring_operator== numeric_readout=20
binder=NHSRSLFSLPGNQQS censoring_operator=≤ numeric_readout=0
binder=RKNRAPPQRPRFNRD censoring_operator== numeric_readout=53
binder=RRSKSLPITPKSIFN censoring_operator== numeric_readout=8
binder=APERAVPILPPRNNV censoring_operator== numeric_readout=1710
binder=RRTRLRPPTPLSQLL censoring_operator== numeric_readout=37.8
binder=NNNKMRPHLPPLSSG censoring_operator== numeric_readout=163
binder=VATSTSPKLPPRGKQ censoring_operator== numeric_readout=3830
binder=VFQFQMPTTPISTKM censoring_operator== numeric_readout=124
binder=TSIEIPKRSPLRFTS censoring_operator=≤ numeric_readout=0
binder=NVLRKILEIPLHSFS censoring_operator=≤ numeric_readout=0
binder=RKRRTHLRLPLIRSN censoring_operator== numeric_readout=29.8
binder=SRYRRPLTLLLLKPF censoring_operator== numeric_readout=31.5
